The listing below reports Log AC50 (M) for compounds tested on Vero cells.
API: value field is a number in M; no unit string.

The cases that follow already have their Log AC50 (M) on record.
[
  {
    "COMPOUND": "O=c1[nH]c2ccccc2n1C1CCN(Cc2ccc(-c3nc4cc5nc[nH]c5cc4nc3-c3ccccc3)cc2)CC1",
    "EXPERIMENTAL_ENDPOINT": "Log AC50 (M)",
    "UNIT_STRING": "M",
    "REPORTED": -4.7827
  },
  {
    "COMPOUND": "O=C1NC2CCCCN2C12CCN(CCCN1c3ccccc3CCc3ccc(Cl)cc31)CC2 (centres unmarked)",
    "EXPERIMENTAL_ENDPOINT": "Log AC50 (M)",
    "UNIT_STRING": "M",
    "REPORTED": -4.5827
  },
  {
    "COMPOUND": "CCCCCCCCOc1ccccc1C(=O)Nc1ccc(C(=O)OCC[N+](C)(CC)CC)cc1.[Br-]",
    "EXPERIMENTAL_ENDPOINT": "Log AC50 (M)",
    "UNIT_STRING": "M",
    "REPORTED": -4.6827
  },
  {
    "COMPOUND": "CCN(CC)CCOc1ccc(C(=C(Cl)c2ccccc2)c2ccccc2)cc1",
    "EXPERIMENTAL_ENDPOINT": "Log AC50 (M)",
    "UNIT_STRING": "M",
    "REPORTED": -4.6327
  }
]

Could you now look at the following compound, please?
**Query** What does the record list as Log AC50 (M) for `Cc1nc(Nc2ncc(C(=O)Nc3c(C)cccc3Cl)s2)cc(N2CCN(CCO)CC2)n1` ?
**Result** -7.0699

---

What follows is a collection of Log AC50 (M) values obtained with Vero cells.
Write your answer as a measured quantity: the number, then the unit.

**Query** API: value(readout= Log AC50 (M), system= Vero cells, query= `CNC(=O)c1cccc(-c2ccc3c(N4CCOC[C@@H]4C)nc(N4CCOC[C@@H]4C)nc3n2)c1` )
**Result** -4.7827 M

**Query** What is its Log AC50 (M) for Vero cells? Entry: `C1=C/COCc2cc(ccc2OCCN2CCCC2)Nc2nccc(n2)-c2cccc(c2)OCC/1`
**Result** -5.9327 M

**Query** Which Log AC50 (M) is reported with Vero cells for this entry: `O=C(N[C@@H](c1ccccc1)[C@@H]1CCCCN1)c1cccc(C(F)(F)F)c1Cl` ?
**Result** -4.3699 M

---

Test system: wild-type ZIKV (Ugandan MR766 strain) in Vero cells
PROTOCOL_DETAILS: ZIKV cytopathic effect (CPE) inhibition qHTS assay, CellTiter-Glo readout
Type: cell-based, Zika virus
Tag: Satisfied if measured Efficacy is not below -40, Not satisfied if it is.

Illustrative cases are given below, each with its answer.
[
  {
    "MOLECULE": "COc1c2c(c(C)c3c1C(=O)OC3)OC1(C)CC(O)C34OC(OC)(CCC3(C)C1C2)OC4(C)CO (stereo not drawn) [NCGC00380890-01]",
    "TARGET_UNDER_TEST": "wild-type ZIKV (Ugandan MR766 strain) in Vero cells",
    "CLASS": "Not satisfied"
  },
  {
    "MOLECULE": "CC(C)(C#N)c1ccc(N2C(=O)OCc3cnc4ccc(-c5cnc6ccccc6c5)cc4c32)cc1 [NCGC00386292-05]",
    "TARGET_UNDER_TEST": "wild-type ZIKV (Ugandan MR766 strain) in Vero cells",
    "CLASS": "Satisfied"
  },
  {
    "MOLECULE": "CCOC(=O)C1=C(N)Oc2ccc(Cl)cc2C1C(C#N)C(=O)OCC (stereo not drawn) [NCGC00387181-02]",
    "TARGET_UNDER_TEST": "wild-type ZIKV (Ugandan MR766 strain) in Vero cells",
    "CLASS": "Not satisfied"
  },
  {
    "MOLECULE": "O=C1N(CC2CCCCN2)CCN1c1ccccc1 (stereo not drawn) [NCGC00370981-01]",
    "TARGET_UNDER_TEST": "wild-type ZIKV (Ugandan MR766 strain) in Vero cells",
    "CLASS": "Satisfied"
  },
  {
    "MOLECULE": "COc1ccc([C@H]2OC[C@H]3O[C@@H](O[C@H]4[C@@H]2NC[C@@H]4O)[C@H](O)[C@H]3O)cc1 [NCGC00380307-01]",
    "TARGET_UNDER_TEST": "wild-type ZIKV (Ugandan MR766 strain) in Vero cells",
    "CLASS": "Not satisfied"
  },
  {
    "MOLECULE": "CN(CC[C@H](N)CC(=O)N[C@H]1C=C[C@@H](n2ccc(N)nc2=O)O[C@@H]1C(=O)O)C(=N)N [NCGC00386414-01]",
    "TARGET_UNDER_TEST": "wild-type ZIKV (Ugandan MR766 strain) in Vero cells",
    "CLASS": "Not satisfied"
  }
]

Pending molecule:
**Query** In plain terms: is recorded Efficacy at least -40 for CC(=O)OCC1OC(O[C@H]2CC[C@@]3(C)C(CC[C@]4(C)C3CC=C3[C@@H]5CC(C)(C)CC[C@]5(C(=O)O)CC[C@]34C)[C@]2(C)CO)C(O)C(O)C1OC1OC(C)C(O)C(OC2OCC(O)C(O)C2O)C1O (stereo partly drawn) [NCGC00380575-01] ?
**Result** Satisfied
